Listing of recorded growth inhibition by entry.
- METHOD_SUMMARY: antimalarial activity against Dd2 strain (AID 2302);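 note: 0% = DMSO untreated growth and 100% = chloroquine plus artemisinin killed control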
- CONDITION_CONTEXT: P. falciparum Dd2 in RBCs, LDH growth readout, 72 h; at 2 µM; active compounds read high
The source made the active and inactive calls.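 Rule for the calls: active = growth inhibition above 50% at the single 2 µM test dose, taken to imply half-maximal potency below 2 µM; inactive = the rest.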

COc1ccc(C(=O)C2CCN(CCCCNC(=O)c3ccc(NC(=O)c4ccc(Cl)cc4)cc3)CC2)c(OC)c1    13% (inactive)
O=S(=O)(c1cccc(F)c1)c1ccc(Nc2ncnc3cc(Br)sc23)cc1Cl    11% (inactive)
O=C(Nc1cccc(C(F)(F)F)c1)c1cccc(S(=O)(=O)NC2CCCN(CC3CCCCC3)C2)c1 (centres undefined)    15% (inactive)
COc1ccc(CNC2Cc3ccccc3C2)cc1-c1ccc(OC)c(S(=O)(=O)NCCN2CCCC2)c1    97% (active)
Cc1cccc(-c2ccc(CNC3CCN(CC4Cn5c(=O)ccc6ccc(F)c4c65)CC3)cn2)c1 (centres undefined)    2% (inactive)
Cc1ccnc2nc(C(=O)Nc3cc(C(F)(F)F)ccc3N3CCCCC3)nn12    94% (active)
Cc1cc(NC(=O)NCCN2CCC(NS(=O)(=O)c3ccc(C(F)(F)F)cc3)C2)c2ccccc2n1 (centres undefined)    39% (inactive)
CC(C)NCc1cccc(-c2cccc(NC(=O)c3cccc(Cl)c3)c2)c1    38% (inactive)

# lookup: growth inhibition of "CC1(C)N=C(N)N=C(N)N1c1cc(Cl)c(Cl)cc1Cl" -3% (inactive)

---

Listing of recorded inhibition by entry.
- TGT: L-lactate dehydrogenase (Plasmodium falciparum (isolate CDC / Honduras))
- METHOD_SUMMARY: PfLDH activity inhibition – cell lysate, 3D7 strain, counter-screen for P. falciparum growth inhibition project (AID 2304);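 note: 0% = vehicle and 100% = reference inhibitor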
- CONDITION_CONTEXT: P. falciparum 3D7 crude extract, LDH APAD/NBT absorbance; at 2 µM; active compounds read high
Answer format: numeric, % implied, no suffix.

Check out these entries, answers already filled in.
COc1ccc2nccc([C@@H](O)CN3CCC(NCCOc4ccc(F)cc4[N+](=O)[O-])CC3)c2c1    -1
CCCCCCCCS(=O)(=O)NCCCC1CCN(CCCCCNC(=O)C=Cc2ccc(Cl)c(Cl)c2)CC1    6
CCCc1ccc(Nc2nc(C)cc(N(CC)CCCN3CCCCC3)n2)cc1    5
CNCc1cccc2[nH]c(-c3csc(Cc4cc(Cl)ccc4OCC(C)C)n3)nc12    -4

Here is the next item to consider.
# lookup: inhibition of "Cc1cc(N[C@@H](Cc2ccccc2)C(=O)NCCOc2ccccc2)nc(NCCc2ccc(F)cc2)n1" 1

---

Listing of recorded growth inhibition by entry.
- METHOD_SUMMARY: inhibition of 3D7 malaria parasite growth – strain 3D7 (AID 2306);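 note: 0% = DMSO wells and 100% = chloroquine plus artemisinin control wells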
- CONDITION_CONTEXT: P. falciparum 3D7 erythrocytic growth, LDH absorbance, 72 h; at 2 µM; active compounds read high
Answer format: numeric, % implied, no suffix.

Check out these entries, answers already filled in.
CCOc1cc(C(=O)NCc2cc(Cl)cc(Cl)c2)ccc1-c1nc2ccc(Cl)cc2[nH]1    101
O=C(c1ccccc1)N1COCC(CCN2CCC(N3CCCC3)CC2)(c2ccc(Cl)c(Cl)c2)C1 (centres undefined)    83
O=C(Nc1cc(C(F)(F)F)cc(C(F)(F)F)c1)NC(CCCN1CCC2(CC1)OCc1ccccc12)c1ccc(Cl)c(Cl)c1 (centres undefined)    94

# lookup: growth inhibition of "CCOc1ccc(N(CC)S(=O)(=O)c2cc(Br)cc3c2N(C(=O)C2CC2)CC3)cc1" 99

# lookup: growth inhibition of "C=CCN1C(=O)C(=Cc2cc(Br)ccc2O)SC1=Nc1ccccc1" 96

# lookup: growth inhibition of Cc1cc2cc(/C=C/C(=O)NC3CCC(CCN4CCc5ccc(C#N)cc5CC4)CC3)ccc2[nH]1 (centres undefined) 85

# lookup: growth inhibition of "Nc1c2ccccc2nc2cc([N+](=O)[O-])ccc12" 98

# lookup: growth inhibition of Cc1cccn2c(=O)c3cc(C(=O)NC(C)c4ccccc4)c(=N)n(CCc4ccccc4)c3nc12 (centres undefined) 101

# lookup: growth inhibition of "O=S(=O)(Nc1ccc(CCN2CCC(N3CCCCC3)CC2)cc1)c1cccc(C(F)(F)F)c1" 101

---

- METHOD_SUMMARY: inhibition of 3D7 malaria parasite growth – strain 3D7 (AID 2306);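 note: 0% = DMSO wells and 100% = chloroquine plus artemisinin control wells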
- CONDITION_CONTEXT: P. falciparum 3D7 erythrocytic growth, LDH absorbance, 72 h; at 2 µM; active compounds read high
Listing of recorded growth inhibition by entry.
Answer format: numeric, % implied, no suffix.

Check out these entries, answers already filled in.
COc1ccc(-c2cccc(NC(=O)c3ccc(Cl)cc3)c2)cc1CN1CCCC1    97
CN1CC=C(c2csc3ccc(NC(=O)Nc4ccc(-c5ccncc5)c5ccccc45)cc23)CC1    93
C[C@H](Cc1ccc(S(=O)(=O)c2ccc(C[C@@H](C)NC[C@H](O)c3cccc(Cl)c3)cc2)cc1)NC[C@H](O)c1cccc(Cl)c1    99
COc1ccc2nccc([C@@H](O)CN3CCC(NCc4cc5ccccc5s4)CC3)c2c1    97

Here is the next item to consider.
# lookup: growth inhibition of "COc1ccccc1Nc1nc(NC2CCN(C)CC2)cc(-c2cccc(C(F)(F)F)c2)n1" 95

---

- METHOD_SUMMARY: HepG2 cytotoxicity, primary screen, cytotoxicity control for P. falciparum antimalarial project, cell-based, ATP luminescence (AID 2303);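 note: 0% = DMSO wells and 100% = digitonin-killed cells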
- CONDITION_CONTEXT: HepG2 viability, 24-48 h, at 10 µM, active compounds read high
Listing of recorded inhibition by entry.
Answer format: numeric, % implied, no suffix.

Check out these entries, answers already filled in.
Cc1cccc2[nH]c(-c3cccc(-c4cccc(NC(=O)Nc5ccsc5)c4)c3)nc12    15
CC(C)S(=O)(=O)N1CCN(Cc2ccc3c(c2)nc(NC(=O)c2ccsc2)n3C[C@H](O)c2ccccc2)CC1    56
CCCCc1cc(NCC)nc(Nc2cccc(OC)c2)n1    9
Cc1c(OC(C)C)nc2ccccc2c1C(=O)N[C@H](c1cccc(F)c1)C1CC1    6

Here is the next item to consider.
# lookup: inhibition of "COc1ccc(NC(=O)[C@H](CC(C)C)Nc2cc(C)nc(NCCc3cccs3)n2)cc1" 5

---

Listing of recorded growth inhibition by entry.
- METHOD_SUMMARY: inhibition of 3D7 malaria parasite growth – strain 3D7 (AID 2306);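 note: 0% = DMSO wells and 100% = chloroquine plus artemisinin control wells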
- CONDITION_CONTEXT: P. falciparum 3D7 erythrocytic growth, LDH absorbance, 72 h; at 2 µM; active compounds read high
Answer format: numeric, % implied, no suffix.

Check out these entries, answers already filled in.
COc1cccc(-c2cccc(NC(=O)C3CCN(Cc4ccc(O)cc4)CC3)c2)c1    97
O=C(Nc1ccc(N2CCN(c3ncccc3C(F)(F)F)CC2)nc1)c1cccs1    83
CN(C(=O)/C=C/c1c(Cl)cccc1Cl)C1CCN(CCCCCNC(=O)/C=C/c2ccc(Cl)c(Cl)c2)CC1    92
CNc1cc(-c2ccc3ccnc(N)c3c2)nc(N)n1    100

Here is the next item to consider.
# lookup: growth inhibition of "COc1ccc(CCNCCCCCCNCCc2ccccc2Cl)cc1OC" 96

---

- METHOD_SUMMARY: antimalarial activity against Dd2 strain (AID 2302);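 note: 0% = DMSO untreated growth and 100% = chloroquine plus artemisinin killed control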
- CONDITION_CONTEXT: P. falciparum Dd2 in RBCs, LDH growth readout, 72 h; at 2 µM; active compounds read high
Label true for high-side growth inhibition (at or above 40%) and false for low-side growth inhibition (below it).

CC(C)n1ncc2c(C(=O)N3CCCCCC3)cc(-c3ccccc3)nc21    true
CN1CCCN(Cc2cccc(-c3ccc(CNC(=O)c4cccc(Cl)c4)c(F)c3)c2)CC1    false
COCCC[C@H]1C(=O)O[C@H]2CCC[C@@H]21    true
CC(CN(C)C)C(=O)Nc1ccc(-c2cccc(-c3nc4ccc(C(F)(F)F)cc4[nH]3)c2)cc1 (stereo not given)    true
Cc1ccc(N2C(N)=NC(N)=NC2(C)C)cc1    false

growth inhibition >= 40% for "Nc1c2c(nc3ccc(NC(=O)CCCCCc4ccccc4)cc13)CCCC2" ? false

growth inhibition >= 40% for "O=C(Nc1cccc(CN2CCN(C(=O)c3ccccc3)CC2)c1)c1cccs1" ? true

growth inhibition >= 40% for CC(COc1ccc2c(c1)OC(C)(C)CC2c1ccccc1)NCC(O)c1cccc(Cl)c1 (stereo not given) ? true

growth inhibition >= 40% for "Cc1c(CN2CCC(N3CCC(C(=O)NC4CC4)CC3)CC2)[nH]c2c(Cl)cccc12" ? false

growth inhibition >= 40% for "CC(=NN=C(N)N)c1ccc2c(ccc3ccccc32)c1" ? false

---

- METHOD_SUMMARY: antimalarial activity against Dd2 strain (AID 2302);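 note: 0% = DMSO untreated growth and 100% = chloroquine plus artemisinin killed control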
- CONDITION_CONTEXT: P. falciparum Dd2 in RBCs, LDH growth readout, 72 h; at 2 µM
Active and inactive are the calls of the source.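 Rule for the calls: active = growth inhibition above 50% at the single 2 µM test dose, taken to imply half-maximal potency below 2 µM; inactive = the rest.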
# valid calls are active, inactive; nothing else

Examples from the recorded data:
COc1ccc(N2CCN(c3nc(N)c4cc(OC)c(OC)cc4n3)CC2C)cc1 (stereo not drawn)    inactive
Cc1ccccc1OCCCON1C(N)=NC(N)=NC1(C)C    active

Could you check what this test reported for "O=C(C=Cc1ccc(Cl)c(Cl)c1)NCCCCCN1CCC(CCCNC(=O)c2ccc3c(c2)OCO3)CC1" ? active

Could you check what this test reported for "COc1ccc(NC(=O)c2ccc(-c3nc(-c4ccccc4)cs3)cc2)cc1N1CCN(C)CC1" ? inactive

Could you check what this test reported for "Cc1[nH]c(C)c(-c2ccc(-c3cccc(Cl)c3)nc2)c(=O)c1Cl" ? active

Could you check what this test reported for "CC(=O)Nc1nc(C(=O)Nc2cccc(-c3ccc(-c4nc5ccccc5[nH]4)cc3)c2)cs1" ? active

Could you check what this test reported for "O=C(Nc1ccc(OC2CCN(Cc3ccco3)CC2)c(Cl)c1)c1ccc2ncccc2c1" ? inactive

Could you check what this test reported for "Cc1cc(C(=O)NC2CCN(Cc3ccccc3)CC2)ccc1-c1nc2ccc(C(F)(F)F)cc2[nH]1" ? inactive

Could you check what this test reported for "O=[N+]([O-])c1cccc(-c2nc(-c3ccc(Br)cc3)[nH]c2-c2ccc(Br)cc2)c1" ? inactive

Could you check what this test reported for O=C(CC1NC(=O)c2ccccc21)Nc1ccc(-c2ccc(-c3nc4ccc(C(F)(F)F)cc4[nH]3)cc2)cc1 (stereo not drawn) ? active

Could you check what this test reported for "Cc1cc(Nc2c(C(N)=O)cnc3cc(-c4ccoc4)ccc23)ccc1N1CCN(C)CC1" ? active

Could you check what this test reported for "Cc1cc(OCCCN2CCCCC2)ccc1NC(=O)COc1ccc(Cl)cc1C(=O)c1cc(C#N)cc(C(F)(F)F)c1" ? inactive

Could you check what this test reported for "O=C(CCCCCCc1ccccc1)Nc1ccc2nc3c(c(NCc4ccccc4)c2c1)CCCC3" ? active
